Hi there, I'd appreciate the recorded minimal effective concentration for every entry that follows.
- Tested on: Aspergillus fumigatus MYA3626
- Method notes: In vitro antifungal assay (Example IX), microdilution broth, MEC
- Format: cell-based
- Reported conditions: minimum effective concentration (shortening of hyphae), 35° C., 40-48 h, RPMI1640

Worked cases, minimal effective concentration given:
{"Molecule": "Nc1ncccc1-c1cc(Cc2ccc(Oc3ncccc3F)cc2)no1 [compound 235]", "minimal effective concentration": "0.01 to 0.1 µg/mL"}
{"Molecule": "Nc1ncccc1-c1cc(Cc2ccc(Oc3ccccc3)nc2)no1 [Example 143]", "minimal effective concentration": "0.01 to 0.1 µg/mL"}
{"Molecule": "Cc1nccc(NCc2ccc(Cc3cc(-c4cccnc4N)on3)cc2)n1 [compound 33]", "minimal effective concentration": "> 1 µg/mL"}
{"Molecule": "Nc1ncccc1-c1cc(Cc2ccc(OCc3cc(F)cc(Cl)c3)nc2)no1 [compound 87]", "minimal effective concentration": "0.01 to 0.1 µg/mL"}
{"Molecule": "Nc1ncccc1-c1cc(Cc2ccc(OCc3cccc4ccccc34)nc2)no1 [Example 164]", "minimal effective concentration": "0.1 to 1 µg/mL"}

Batch: minimal effective concentration for all items listed.
1. Nc1ncccc1-c1cc(Cc2ccc(OCc3nccs3)nc2)no1 [compound 42]
2. Nc1ncccc1-c1cc(Cc2ccc(OCC(c3ccccc3)c3ccccc3)nc2)no1 [compound 215]

(A)
0.01 to 0.1 µg/mL
> 1 µg/mL

State the recorded minimal effective concentration for every item in the following list.
1. Nc1ncccc1-c1cc(Cc2cnc(OCC3CC3)c(F)c2)no1 [compound 247]
2. Nc1ncccc1-c1cc(Cc2ccc(Cn3cc(F)cn3)cc2)no1 [compound 4]
3. Nc1ncccc1-c1cc(Cc2ccc(Cc3cccc(F)c3)cc2)no1 [compound 208]
4. Nc1ncccc1-c1cc(Cc2ccnc(Oc3ccccc3)c2)no1 [compound 88]
5. Cc1ccc(Cc2ccc(Cc3cc(-c4cccnc4N)on3)cc2)o1 [compound 122]
6. Nc1ncccc1-c1cc(Cc2ccc(N3CCC3c3ccccc3)nc2)no1 (stereo not shown) [compound 188]
7. Nc1ncccc1-c1cc(Cc2ccc(Oc3c[n+]([O-])ccn3)cc2)no1 [compound 119]
8. Nc1ncccc1-c1cc(Cc2ccc(Cn3cc(C(F)(F)F)cn3)cc2)no1 [compound 5]

(A)
1: 0.01 to 0.1 µg/mL; 2: 0.01 to 0.1 µg/mL; 3: 0.01 to 0.1 µg/mL; 4: 0.1 to 1 µg/mL; 5: ≤ 0.01 µg/mL; 6: > 1 µg/mL; 7: > 1 µg/mL; 8: 0.1 to 1 µg/mL

// input: 4 molecules below; output: minimal effective concentration for each
1. N#Cc1cnn(Cc2ccc(Cc3cc(-c4cccnc4N)on3)cc2)c1 [compound 3]
2. Nc1ncccc1-c1cc(Cc2ccc(OCc3ccccn3)nc2)no1 [compound 35]
3. COc1cc(COc2ccc(Cc3cc(-c4cccnc4N)on3)cn2)ccn1 [Example 165]
4. Nc1ncccc1-c1cc(Cc2ccc(OCc3ccncc3F)nc2)no1 [compound 54]

(A)
1. 0.1 to 1 µg/mL
2. 0.01 to 0.1 µg/mL
3. 0.01 to 0.1 µg/mL
4. 0.01 to 0.1 µg/mL

###

Cryptococcus neoformans H99: recorded MIC for assorted molecules

Sample answers from the record:
{"Smiles representation": "Nc1ncccc1-c1cc(Cc2ccc(/C=C/C3CCCCC3)cc2)no1", "MIC": "0.1 to 1 µg/mL"}
{"Smiles representation": "Nc1ncccc1-c1cc(Cc2ccc(CNc3cccc(F)n3)cc2)no1", "MIC": "0.1 to 1 µg/mL"}
{"Smiles representation": "COc1cc(COc2ccc(Cc3cc(-c4cccnc4N)on3)cn2)c(F)cn1", "MIC": "0.01 to 0.1 µg/mL"}
{"Smiles representation": "Nc1ncccc1-c1cc(Cc2ccc(Cn3cc(C(F)(F)F)cn3)cc2)no1", "MIC": "0.1 to 1 µg/mL"}

Next molecule, MIC to be filled in.
The recorded MIC for Nc1ncccc1-c1cc(Cc2ccc(Oc3cccc(F)n3)cc2)no1 is ≤ 0.01 µg/mL

###

- Test system: Aspergillus fumigatus MYA3626
- Method notes: In vitro antifungal assay (Example IX), microdilution broth, MEC
- Type: cell-based
- Reported conditions: minimum effective concentration (shortening of hyphae), 35° C., 40-48 h, RPMI1640
For each record, write down the corresponding minimal effective concentration.

{"Molecule": "Nc1ncccc1-c1cc(Cc2ccnc(OCCc3cccc(F)c3)c2)no1", "Quantity": "minimal effective concentration", "Result": "> 1 µg/mL"}
{"Molecule": "Nc1ncccc1-c1cc(Cc2ccc(Cn3ccccc3=O)cc2)no1", "Quantity": "minimal effective concentration", "Result": "> 1 µg/mL"}

For each of the items listed, what is its minimal effective concentration?
1. Nc1ncccc1-c1cc(Cc2ccc(OCCCc3ccc(OCc4ccccc4)cc3)nc2)no1
2. Nc1ncccc1-c1cc(Cc2ccc(Cc3cc(F)nc(F)c3)cc2)no1
3. Nc1ncccc1-c1cc(Cc2ccc(CNc3ncns3)cc2)no1
4. N#CCCOc1ccc(Cc2cc(-c3cccnc3N)on2)cn1

(A)
1: > 1 µg/mL; 2: 0.1 to 1 µg/mL; 3: > 1 µg/mL; 4: > 1 µg/mL

Give minimal effective concentration for all molecules that follow.
1. Nc1ncccc1-c1cc(Cc2ccc(OCc3cc(Cl)nc(Cl)c3)nc2)no1
2. Nc1ncccc1-c1cc(Cc2ccc(CNc3nc(=O)[nH]cc3F)cc2)no1
3. Nc1ncccc1-c1cc(Cc2ccc(-c3ccccn3)cc2)no1
4. Nc1ncccc1-c1cc(Cc2ccc(COc3cccc4ccccc34)cc2)no1
5. Nc1ncccc1-c1cc(Cc2ccc(Oc3ccc(F)cn3)cc2)no1
6. Nc1ncccc1-c1cc(Cc2ccc(OCc3ccncc3)cc2)no1

(A)
0.1 to 1 µg/mL
> 1 µg/mL
> 1 µg/mL
> 1 µg/mL
0.01 to 0.1 µg/mL
0.1 to 1 µg/mL

###

Data export: MIC values recorded with Cryptococcus neoformans H99.

A selection of reference data follows.
{"Compound": "Nc1ccc(-c2cc(Cc3ccc(Oc4cccc(F)n4)cc3)no2)c(N)n1 [compound 134]", "MIC": "0.01 to 0.1 µg/mL"}
{"Compound": "COc1ccc(OCc2ccc(Cc3cc(-c4cccnc4N)on3)cc2)cc1OC [compound 104]", "MIC": "> 1 µg/mL"}
{"Compound": "Nc1ncccc1-c1cc(Cc2ccc(OCc3cccnc3)nc2)no1 [compound 36]", "MIC": "0.01 to 0.1 µg/mL"}
{"Compound": "Nc1ncccc1-c1cc(Cc2ccc(OCc3csc(Cl)n3)nc2)no1 [compound 220]", "MIC": "0.1 to 1 µg/mL"}

Then this compound:
So, N#CCc1ccc(Cc2cc(-c3cccnc3N)on2)cc1 [compound 2] ? Its MIC was > 1 µg/mL

###

So I've got a bunch of molecules here, and I need their MIC values.
- Tested on: Cryptococcus gattii

I have 5 molecules here; please give me MIC for each one.
1. Nc1ncccc1-c1cc(Cc2ccc(NCc3ccccc3F)nc2)no1
2. Nc1ncccc1-c1cc(Cc2ccc(Cc3cnoc3)cc2)no1
3. Nc1ncccc1-c1cc(Cc2ccc(OCc3ccc(F)cn3)nc2)no1
4. Nc1ncccc1-c1cc(Cc2ccc(OCc3csc(Cl)n3)nc2)no1
5. Nc1ncccc1-c1cc(Cc2ccc(OCc3cccc(Br)n3)nc2)no1

(A)
["0.01 to 0.1 µg/mL", "0.1 to 1 µg/mL", "0.1 to 1 µg/mL", "0.1 to 1 µg/mL", "0.1 to 1 µg/mL"]

For each of the molecules below, note its MIC.
1. Nc1ncccc1-c1cc(Cc2ccc(Oc3ccccn3)cc2)no1
2. Nc1ncccc1-c1cc(Cc2ccc(Cn3cncn3)cc2)no1
3. Nc1ncccc1-c1cc(Cc2ccc(OCc3nccs3)nc2)no1
4. Nc1ncccc1-c1cc(Cc2ccc(Oc3ncccc3F)cc2)no1
5. Nc1ncccc1-c1cc(Cc2ccc(COc3cccnc3)cc2)no1

(A)
≤ 0.01 µg/mL
> 1 µg/mL
0.01 to 0.1 µg/mL
≤ 0.01 µg/mL
0.01 to 0.1 µg/mL

Hi, could you look up MIC for each item in my list?
1. Nc1ncccc1-c1cc(Cc2ccc(OCc3ccc(F)cc3)nc2)no1
2. Nc1ncccc1-c1cc(Cc2ccc(Oc3ncccn3)c(F)c2)no1

(A)
["0.01 to 0.1 µg/mL", "> 1 µg/mL"]

I would be grateful if you could provide MIC for each of the following entries.
1. Nc1ncccc1-c1cc(Cc2ccc(OCc3cccnc3)nc2)no1
2. Nc1ncccc1-c1cc(Cc2ccc(Oc3ccc(F)cn3)cc2)no1

(A)
1. 0.01 to 0.1 µg/mL
2. 0.1 to 1 µg/mL

###

- Tested on: Rhizomucor pusillus 46342
- Method notes: In vitro antifungal assay (Example IX), microdilution broth, MEC
- Format: cell-based
- Reported conditions: minimum effective concentration (shortening of hyphae), 35° C., 40-48 h, RPMI1640
Provide the recorded minimal effective concentration for the entries that follow.

Illustrative cases are given below, each with its answer.
{"Smiles representation": "Nc1ncccc1-c1cc(Cc2ccc(OCc3ccncc3)nc2)no1", "Result": "> 1 µg/mL"}
{"Smiles representation": "Nc1ncccc1-c1cc(Cc2ccc(OCc3cscn3)nc2)no1", "Result": "0.1 to 1 µg/mL"}
{"Smiles representation": "Nc1ncccc1-c1cc(Cc2ccc(O)cc2)no1", "Result": "> 1 µg/mL"}
{"Smiles representation": "Nc1ncccc1-c1cc(Cc2ccc(OCc3ccc4ccccc4n3)cc2)no1", "Result": "> 1 µg/mL"}

# context switch: different molecule, same minimal effective concentration
Noted for Nc1ncccc1-c1cc(Cc2ccc(Oc3cccc(F)n3)c(F)c2)no1 : its minimal effective concentration reads 0.1 to 1 µg/mL

Reference source: patent US11512079B2
